Tested on: HEK-293T
Test: Multiplex assay against HEK293T
Format: toxicity, cell-based
Conditions: human, 24 h, 1 µM, compound concentration 1 uM, replicate 2
assayReadout: Population Fragmented Nuclei (%)
Write the number in % without appending the unit.

In the examples that follow, each entry is paired with its recorded Population Fragmented Nuclei (%).
# molecule, Population Fragmented Nuclei (%)
data = [
    ("CCCn1c(=O)c2[nH]c(-c3cnn(Cc4cccc(C(F)(F)F)c4)c3)nc2n(CC)c1=O", 5),
    ("CCn1cc(-c2ccnc3[nH]c(-c4cccc(CN(C)C)c4)cc23)c(-c2ccc(NC(=O)N(C)C)cc2)n1", 9),
    ("O=C1NC(=O)C(c2cnc3ccccn23)=C1c1cn2c3c(cc(F)cc13)CN(C(=O)N1CCCCC1)CC2", 5),
]

Value of Population Fragmented Nuclei (%) reported for the molecule CCOC(=O)c1c(C)[nH]c2ccc3c(c12)CN1CCc2cc(OC)ccc2C1O3 (stereo not given) is 3

Value of Population Fragmented Nuclei (%) reported for the molecule Cn1nc(C(F)(F)F)cc1-c1cnc(N2CCc3cc(S(=O)(=O)Nc4c(F)cc(Cl)cc4F)cc(N4CCCC4=O)c32)nc1 is 12

Value of Population Fragmented Nuclei (%) reported for the molecule O=C1N/C(=N/c2ccccc2F)S/C1=C\c1ccc(C(=O)O)cc1 is 6

Value of Population Fragmented Nuclei (%) reported for the molecule CNC(=O)c1ccc(Nc2nc(OC3CCCC3)c3c(-c4ccc5nc(C)oc5c4)c[nH]c3n2)c(OC)c1 is 3

* * *

System: U2OS
Assay: Multiplex assay against U2OS
Assay type: toxicity, cell-based
Conditions: human, 24 h, 10 µM, compound concentration 10 uM, replicate 2
assayReadout: Population Tubulin-Different-Phenotype (%)
Write the number in % without appending the unit.

In the examples that follow, each entry is paired with its recorded Population Tubulin-Different-Phenotype (%).
# compound, testedTarget, unitLabel, value
records = [
    ("CCn1c(=O)c(-c2ccc(-c3cncs3)cc2Cl)cc2cnc(Nc3ccc(N4CCN(C)CC4)cc3)nc21", "U2OS", "%", 8),
    ("Cl.O=C(c1ccc(Nc2nccc(-c3cc4ccccc4s3)n2)cc1)N1CCC(N2CCCC2)CC1", "U2OS", "%", 87),
    ("CCCS(=O)(=O)Nc1ccc(F)c(C(=O)c2c[nH]c3ncc(Cl)cc23)c1F", "U2OS", "%", 32),
    ("CNc1cc(Oc2cc(C(=O)Nc3cc(N4CCN(C)CC4)cc(C(F)(F)F)c3)ccc2C)ncn1", "U2OS", "%", 80),
    ("COc1cc2ncnc(Nc3ccc(F)c(Cl)c3)c2cc1NC(=O)/C=C/CN1CCCCC1 [DACOMITINIB ANHYDROUS]", "U2OS", "%", 22),
    ("S=C(NCCCc1c[nH]cn1)NCCCN(Cc1ccc(Cl)c(Cl)c1)c1ccc(Br)cn1", "U2OS", "%", 88),
    ("Cc1ccc2nc(NCCN)c3ncc(C)n3c2c1.O=C(O)C(F)(F)F.O=C(O)C(F)(F)F", "U2OS", "%", 30),
]

Next compound, please.
Value of Population Tubulin-Different-Phenotype (%) reported for the compound O=C(Cc1ccc(-c2ccc(OCCN3CCOCC3)cc2)cn1)NCc1ccccc1 is 13

* * *

Test system: U2OS
Experiment: Multiplex assay against U2OS
Format: toxicity, cell-based
Settings: human, 48 h, 10 µM, compound concentration 10 uM, replicate 1
Population Apoptotic (%) overview
Write the number in % without appending the unit.

In the examples that follow, each entry is paired with its recorded Population Apoptotic (%).
# compound, assayReadout, value
data = [
    ("CN(C)C(=O)C(CCN1CCC(O)(c2ccc(Cl)cc2)CC1)(c1ccccc1)c1ccccc1.Cl [LOPERAMIDE HYDROCHLORIDE]", "Population Apoptotic (%)", 98),
    ("CNc1cc(Oc2cc(C(=O)Nc3cc(N4CCN(C)CC4)cc(C(F)(F)F)c3)ccc2C)ncn1", "Population Apoptotic (%)", 96),
    ("Cc1cc(C)c(S(=O)(=O)N(Cc2ccc(-c3cccc(S(C)(=O)=O)c3)cc2)Cc2ccc(C(F)(F)F)o2)c(C)c1", "Population Apoptotic (%)", 55),
    ("CN1CCC(=C2c3ccccc3CC(=O)c3sccc32)CC1.O=C(O)/C=C/C(=O)O [KETOTIFEN FUMARATE]", "Population Apoptotic (%)", 66),
    ("Cl.O=C(c1ccc(Nc2nccc(-c3cc4ccccc4s3)n2)cc1)N1CCC(N2CCCC2)CC1", "Population Apoptotic (%)", 98),
]

Value of Population Apoptotic (%) reported for the compound O=C(Cc1ccc(-c2ccc(OCCN3CCOCC3)cc2)cn1)NCc1ccccc1 [TIRBANIBULIN] is 64

Value of Population Apoptotic (%) reported for the compound Cc1cn(-c2cc(NC(=O)c3ccc(C)c(Nc4nccc(-c5cccnc5)n4)c3)cc(C(F)(F)F)c2)cn1 [NILOTINIB] is 85

Value of Population Apoptotic (%) reported for the compound C=C1/C(=C\C=C2/CCC[C@]3(C)[C@@H]([C@H](C)/C=C/[C@H](C)C(C)C)CC[C@@H]23)C[C@@H](O)C[C@@H]1O [DOXERCALCIFEROL] is 47

Value of Population Apoptotic (%) reported for the compound Cc1ccc(C(=O)Nc2cccc(C(F)(F)F)c2)cc1Nc1nc(-c2cccnc2)nc2c1cnn2C is 96

Value of Population Apoptotic (%) reported for the compound CCN1CCN(Cc2ccc(Nc3ncc(F)c(-c4cc(F)c5nc(C)n(C(C)C)c5c4)n3)nc2)CC1.CS(=O)(=O)O is 98

Value of Population Apoptotic (%) reported for the compound CCn1c(=O)c(-c2ccc(-c3cncs3)cc2Cl)cc2cnc(Nc3ccc(N4CCN(C)CC4)cc3)nc21 is 93

Value of Population Apoptotic (%) reported for the compound O=C1N/C(=N/c2ccccc2F)S/C1=C\c1ccc(C(=O)O)cc1 is 21
